system: MDA-MB-231 breast; test: NCI tumour cell line growth inhibition, 48 h
Measure name: GI50

Below is a list of molecules. For each, state its recorded GI50.
1. NC(=O)CCC(NC(=O)OCc1ccccc1)C(=O)OCC(=O)c1ccccc1 (centres undefined)
2. CC(=O)Oc1ccc(OC(C)=O)c2ccccc12
3. CC1(C)N=C(N)N=C(N)N1c1cccc(C#N)c1

> 100000 nM
1170 nM
> 100000 nM

Lab note: need GI50 for "Nc1ccc(-c2nc3ccc4[nH]ncc4c3c3c2CCCC3)cc1F" on MDA-MB-231 breast, anyone have it?
1710 nM

----------
system: PC-3 prostate; experiment: NCI tumour cell line growth inhibition, 48 h
So I've got a bunch of compounds here, and I need their TGI values.

C#CCNC(Cc1cnc[nH]1)C(=O)O (configuration not stated) ... > 100 µM
COc1cc(-c2cc(-c3ccc(N(C)C)cc3)nc(N3CCOCC3)c2C#N)cc(OC)c1OC ... > 100 µM
O=C(/C=C/c1ccc(C(F)(F)F)cc1)c1ccc(Nc2nc(NCCO)nc(NCCO)n2)cc1 ... 13.1 µM
N#CCCC1C(C#N)C2CC1C1C3C=CC(C3)C21 (configuration not stated) ... > 100 µM
CC(CN=C(CC(=O)c1ccc(Br)cc1)c1ccccc1)N=C(CC(=O)c1ccc(Br)cc1)c1ccccc1 (configuration not stated) ... > 100 µM
Clc1nc(-[n+]2ccc(-c3ccncc3)cc2)nc(Nc2ccccc2)c1Cl ... > 100 µM
CS(=O)(=O)OCCN1CCC2(CC1)SSC1(CCN(CCOS(C)(=O)=O)CC1)S2 ... > 100 µM
CCc1nnc(-n2c(C)nc3cc(Cl)ccc3c2=O)s1 ... > 100 µM

List TGI for every entry below, keeping the order given.
1. O=C(C1=C(C(=O)c2ccccc2)SC2(S1)C(C(=O)c1ccccc1)=C(C(=O)c1ccccc1)Sc1c2ssc1=O)c1ccccc1
2. CN(C)CCCNc1nn2c(=O)c3ccccc3nc2c2ccccc12
3. N#CC1=C(N)C(C#N)(C#N)C(c2ccc(F)cc2)C=C1C1CC1 (configuration not stated)
4. Cc1ccc(C(=O)N(C(C)C)C(C)C)cc1N=NN(C)C

["> 100 µM", "36.9 µM", "21.8 µM", "> 100 µM"]

----------
system: RXF 393 renal; test: NCI tumour cell line growth inhibition, 48 h
Measure name: TGI

Worked examples follow.
COc1ccc(C(=O)c2cc(OC)c(OC)c(OC)c2)cc1OC(C)=O ... > 100 µM
CC(=O)Oc1ccc(OC(C)=O)c2ccccc12 ... 20.2 µM
Cc1csc2c1C(=O)c1ccsc1C2=O ... 11.8 µM
Cc1cc2ccccc2n1CC(=O)NCC(C)C ... > 100 µM
COc1ccc(SC2c3cc(OC)c(OC)cc3Oc3nc(N)c(C#N)c(N)c32)cc1 (stereo unspecified) ... 2.01 µM

Please examine the following record next.
Requested read-out TGI, target or system RXF 393 renal, entry "Nc1ncnc2c1c(C(F)(F)F)cn2[C@@H]1O[C@H](CO)[C@@H](O)[C@H]1O"
1.67 µM

----------
Please provide measured TGI for the entries that follow.
system: RPMI-8226 leukemia; assay: NCI tumour cell line growth inhibition, 48 h

Guide cases for TGI, answers given:
O=P(Oc1ccc(Cl)cc1)(Oc1ccc(Cl)cc1)N1CC1 ... > 10 µM
CCOC(=O)c1ccc(C(=O)C(C(C)=O)C(=O)OC(C)(C)C)n1C (centres undefined) ... > 100 µM
O=C(N/N=C(/c1nc2ccc(Cl)cc2[nH]c1=O)C(O)c1ccc(Cl)cc1Cl)c1ccncc1 (centres undefined) ... > 100 µM

Let us examine a further case.
I am curious: what TGI value has been reported for "C(=N\Nc1nnc2c(n1)[nH]c1ccccc12)/c1cccnc1" ?
> 100 µM

----------
tested on: DU-145 prostate; test: NCI tumour cell line growth inhibition, 48 h
Measure name: TGI

# annotated cases, reported TGI shown
O=C(N/N=C\c1cccc2ccccc12)Nc1ccc([N+](=O)[O-])cc1 ... > 60.7 µM
COc1ccc(/C=C/c2cc(O)cc(OC)c2)cc1 ... > 100 µM
COc1ccc(C(O)c2ccc3c(c2)OCO3)cc1 (stereo not drawn) ... > 100 µM
CCOC(=O)c1ccc(C(=O)C(C(C)=O)C(=O)OC(C)(C)C)n1C (stereo not drawn) ... > 100 µM
N#Cc1c(Nc2ccc(F)cc2)[n+]([O-])c2ccc(Cl)cc2[n+]1[O-] ... > 100 µM

Field: TGI. Fill in for each record below.
1. CN(C)C[C@H]1CC[C@@H](CN(C)C)C1=O
2. C#CCN1C(=O)/C(=c2\sc3n(c2=O)C2C(NN=3)N(CC)C(=O)N2CC)c2ccccc21 (stereo not drawn)
3. Cc1cc(S(=O)(=O)Nc2nnc3c(C(F)(F)F)cc(Cl)cn23)c(S)cc1Cl

["> 50 µM", "> 38.6 µM", "> 100 µM"]

----------
test system: LOX IMVI melanoma; experiment: NCI tumour cell line growth inhibition, 48 h
Measure name: TGI

CC(=O)NS(=O)(=O)c1ccc(NC(=O)COC(=O)c2cccc3c(=O)c4ccccc4[nH]c23)cc1 ... > 100 µM
O=C(c1ccccc1)c1c(C(F)(F)F)n([O-])c2ccccc2[n+]1=O ... > 100 µM

Now consider the entry below.
Given the entry O=C(N/N=C(/c1nc2ccc(Cl)cc2[nH]c1=O)C(O)c1ccc(Cl)cc1Cl)c1ccncc1 (stereo not drawn) , what TGI was observed with LOX IMVI melanoma?
> 100 µM

----------
test system: HL-60(TB) leukemia; experiment: NCI tumour cell line growth inhibition, 48 h
Measure name: TGI

Take each entry in turn and give its TGI.
1. NCCCCCS(=O)(=O)O
2. COc1ccc2c(c1)CCC1C2CC[C@@]2(C)C1CC[C@@]2(O)CNC(=O)/C=C/c1ccc(O)c(OC)c1 (stereo not given in full)
3. Cc1cc2ccccc2n1CC(=O)NCC(C)C
4. Cc1nc(C)c(C(=O)Nc2cccc3c2C(=O)NC3=O)cc1C(=O)Nc1cccc2c1C(=O)NC2=O
5. CC(NC(=O)/C(=C/c1ccccc1O)NC(=O)c1ccccc1)C(=O)O (stereo not given)

1. > 100 µM
2. > 100 µM
3. > 100 µM
4. > 100 µM
5. > 100 µM

----------
Please respond with reported GI50 for every item in the list.
test system: SN12C renal; experiment: NCI tumour cell line growth inhibition, 48 h

# count of solved cases: 3
C=C(CN1CCN(c2ccccc2OC)CC1)c1ccc(C(=O)Nc2ccccc2N)cc1 ... 0.0129 µM
N#Cc1c(NC(=O)c2ccccc2)sc2c1CCC(=O)C2 ... 1.16 µM
C/C1=C\[C@H](C)C[C@H](C)OC(=O)C[C@H](c2ccc(O)cc2)NC(=O)[C@@H](Cc2c(Br)[nH]c3ccccc23)N(C)C(=O)[C@H](C)NC(=O)[C@@H](C)C1 ... 0.0738 µM

Okay, now this compound:
Given COC(=O)C[CH](C(=O)OC)[Ge]([CH3])([CH3])[S]c1ccccc1 (centres undefined) , state its recorded GI50.
16 µM

----------
Provide the recorded TGI for the entries that follow.
tested on: HCT-15 colon; test: NCI tumour cell line growth inhibition, 48 h

Use these answered entries as a reference point.
Oc1ccc2oc3ncc(Cl)c(-c4ccccc4)c3c2c1 ... > 100 µM
N#CCCC1C(C#N)C2CC1C1C3C=CC(C3)C21 (stereo unspecified) ... > 100 µM
COc1cc(C2C3=C(CCC3=O)Oc3cc4c(cc32)OCO4)cc(OC)c1OC (stereo unspecified) ... > 100 µM
Cc1ccc(S(=O)(=O)N(/N=C(\N)Oc2ccc(Cl)cc2)C(=N)Oc2ccc(Cl)cc2)cc1 ... > 100 µM
O=P(Oc1ccc(Cl)cc1)(Oc1ccc(Cl)cc1)N1CC1 ... > 10 µM

Now for the compound whose TGI we want.
Give its TGI value. Item: "CC(=O)NS(=O)(=O)c1ccc(NC(=O)COC(=O)c2cccc3c(=O)c4ccccc4[nH]c23)cc1"
> 100 µM

----------
test system: NCI/ADR-RES ovarian; test: NCI tumour cell line growth inhibition, 48 h
Answer rule not met if TGI is under 6 µM, and rule met if it is 6 µM or more.

Use the examples below as a reference point.
C/C(O)=C(\C=N\C(N)=S)C(=O)Nc1ccccc1C ... rule met
CCOC(=O)c1cc2c(OC(C)=O)ccc(OC(C)=O)c2s1 ... rule not met

Is it the case that "Clc1nc(-[n+]2ccc(-c3ccncc3)cc2)nc(Nc2ccccc2)c1Cl" has TGI reaching or exceeding 6 µM?
rule met

TGI >= 6 µM for "COc1ccc(-c2ccc3c(NC(=O)C4CC4)n[nH]c3n2)cc1" ?
rule met

Is TGI for "O=C(c1ccccc1)c1c(C(F)(F)F)n([O-])c2ccccc2[n+]1=O" at or above 6 µM?
rule met

Record "Nc1ccc(-c2nc3ccc4[nH]ncc4c3c3c2CCCC3)cc1F" ; criterion: TGI no lower than 6 µM. Met?
rule met

Please tell me: is the molecule "O=[N+]([O-])c1cccc([N+](=O)[O-])c1S(=O)(=O)c1ccccc1" at or over 6 µM in terms of TGI?
rule met

Reported TGI at or above 6 µM? "Cc1nnc2cc(C(=O)O)c3ccccc3n2c1=O"
rule met

Record "CC(=O)Oc1ccc(OC(C)=O)c2ccccc12" ; criterion: TGI no lower than 6 µM. Met?
rule met

I'd appreciate it if you could say whether "Cc1ccc(C(=O)N(C(C)C)C(C)C)cc1N=NN(C)C" has TGI at least equal to 6 µM.
rule met

Confirm if TGI reported for the molecule "COc1ccc(C2(c3ccc(OC)cc3)OC(=O)c3cccc4cccc2c34)cc1" is 6 µM or above.
rule met

Quick check: does "C/C1=C\[C@H](C)C[C@H](C)OC(=O)C[C@H](c2ccc(O)cc2)NC(=O)[C@@H](Cc2c(Br)[nH]c3ccccc23)N(C)C(=O)[C@H](C)NC(=O)[C@@H](C)C1" have TGI greater than or equal to 6 µM?
rule not met

State whether the measured TGI reaches 6 µM, counting equality as reaching it, for "CCN(CC)CCN1C(=O)c2c(c(C)c3c(oc4cc(O)ccc43)c2C)C1=O"
rule not met
